System: CAKI-1
measurement_description: NCI tumour cell line growth inhibition, 48 h
The source made the active and inactive calls. Rule as the data show it: active = GI50 up to about 1.1 µM and inactive = higher.
Respond with a class label; see Yes = active, No = inactive

Sample answers from the record:
// query Returns: the outcome recorded for CC(=O)Nc1ccccc1[S+]([O-])c1ccccc1 (configuration not stated) in this assay.
// result No

// query Which outcome was assigned to C=Cc1nc2nnc(CCCCCCCCc3nnc4nc(C=C)[nH]n34)n2[nH]1 in this test?
// result No

// query Check the results log: what was the call for COc1ccc(C2(CC(C)C)CCN(S(=O)(=O)c3ccc(C)cc3)C2)cc1OC (configuration not stated) ?
// result No

Continuing:
// query Give the logged outcome of this assay for the following compound: COc1cc(O)c2c(O)c3c(c4c2c1[C@]1(C4)C(C)=CCCC1(C)C)[C@H](O)[C@@]1(O)CC(O)=C(C(N)=O)C(=O)[C@@]1(O)C3=O
// result Yes

// query Call for entry Cc1ccc(/N=N/C(=O)NNc2ccc(C)cc2Br)c(Br)c1 :
// result No

// query Outcome? COC(=O)CSSCc1ccc([N+](=O)[O-])cc1
// result No

// query Look up the recorded call for O=C(O)c1cc(-c2ccccc2O)nc2ccccc12 in this test.
// result No
